- System: SMN2-linked luciferase-reporter gene construct
- PROTOCOL_DETAILS: SMN splice reporter assay (SMN2-linked luciferase reporter, Example 10)
- Format: cell-based
- MEASUREMENT_CONDITIONS: SMN2-linked luciferase reporter, average
pEC50: −log10 of the molar value.
ASSAY_READOUT: pEC50

P. CC(C(=O)O)c1ccc(N2Cc3ccc(OCC4CCC4)cc3C2=O)cc1 (centres unmarked) [ALB-115585]
Q. CC(C)c1ccc(N2Cc3cccc(O)c3C2=O)cc1 [ALB-118158]
Param metric = pEC50; output whichever of P , Q has the minimum value. // output: label of the selected item
Q
(Q: 6.13, P: 7.08)

I. CCCc1ccc(N2Cc3ccccc3C2=O)cc1 [ALB-115499]
II. CCOCc1ccc2c(c1)C(=O)N(c1ccc(C(C)CO)cc1)C2 (centres unmarked) [ALB-114743]
III. CCCCCOc1ccc2c(c1)C(=O)N(c1ccc(C(C)C(=O)O)cc1)C2 (centres unmarked) [ALB-113494]
List the 3 entries from lowest pEC50 to highest pEC50 value. Return value: ordered labels per request.
III, II, I

----------
- PROTOCOL_DETAILS: Plasma and brain pharmacokinetics in mice
- Format: in vivo, FVB or CD-1 mice
- MEASUREMENT_CONDITIONS: 5 mg/kg, oral, single dose
ASSAY_READOUT: Brain AUC (ng·h/g)

Example entries begin here.
| COMPOUND | VAL |
| --- | --- |
| COc1ccc2c(c1)C(=O)N(c1ccc(C(C)C(=O)O)cc1)C2 (centres unmarked) | 570.0 |
| Br.COCC(C)c1ccc(N2Cc3ccc(C)cc3C2=O)cc1 (centres unmarked) | 170.5 |

1. COc1ccc2c(c1)C(=O)N(c1ccc(C(C)(C)C)cc1)C2
2. CC(C)c1ccc(N2Cc3cc4c(cc3C2=O)OCCO4)cc1
3. COCc1ccc2c(c1)C(=O)N(c1ccc(C(C)C)cc1)C2
Put the entries in order of Brain AUC, starting with the largest number. As an answer, provide the labels arranged in the order called for.
1, 3, 2
(1: 553.8 ng·h/g, 3: 338.1 ng·h/g, 2: 163.8 ng·h/g)

----------
- PROTOCOL_DETAILS: Plasma and brain pharmacokinetics in mice
- Format: in vivo, FVB or CD-1 mice
- MEASUREMENT_CONDITIONS: mouse, plasma, 5 mg/kg, oral, single dose, read-out: Plasma T½ (converted)
ASSAY_READOUT: half-life (h)

| COMPOUND | UNIT_TEXT | half-life |
| --- | --- | --- |
| COc1ccc2c(c1)C(=O)N(c1ccc(C(C)(C)C)cc1)C2 [ALB-115210] | h | 9.4 |

I. COc1ccc2c(c1)C(=O)N(c1ccc(C(C)C(=O)O)cc1)C2 (stereo not shown) [ALB-112355]
II. CC(C)c1ccc(N2Cc3cc4c(cc3C2=O)OCCO4)cc1 [ALB-115498]
III. Br.COCC(C)c1ccc(N2Cc3ccc(C)cc3C2=O)cc1 (stereo not shown) [ALB-113967]
# ascending order, key=half-life Form entry: ranked labels (order as requested).
II, III, I

----------
- Tested on: SMN2-linked luciferase-reporter gene construct
- PROTOCOL_DETAILS: SMN splice reporter assay (SMN2-linked luciferase reporter, Example 10)
- Format: cell-based
- MEASUREMENT_CONDITIONS: SMN2-linked luciferase reporter, average
pEC50: −log10 of the molar value.
ASSAY_READOUT: pEC50

| COMPOUND | ASSAYED_TARGET | ASSAY_READOUT | VAL |
| --- | --- | --- | --- |
| O=C1c2cc(Br)ccc2CN1c1ccc(C2CCCC2)cc1 [ALB-116072] | SMN2-linked luciferase-reporter gene construct | pEC50 | 7.17 |
| CC(C(=O)O)c1ccc(N2Cc3ccc(I)cc3C2=O)cc1 (stereo not shown) [ALB-115216] | SMN2-linked luciferase-reporter gene construct | pEC50 | 7.12 |
| CC(CN(C)C)c1ccc(N2Cc3ccccc3C2=O)cc1 (stereo not shown) [ALB-113968] | SMN2-linked luciferase-reporter gene construct | pEC50 | 5.22 |

I. CCc1ccc2c(c1)CN(c1ccc(C(C)C(=O)O)cc1)C2=O (stereo not shown) [ALB-113490]
II. CC(C)Oc1ccc2c(c1)C(=O)N(c1ccc(C(C)C)cc1)C2 [ALB-116076]
Looking only at measured pEC50, which entry is lower, I or II ? Indicate which entry you chose by stating its label.
I
